Measured yeast fitness, listed per entry for reference.
B1: tRNA (parent)
chain: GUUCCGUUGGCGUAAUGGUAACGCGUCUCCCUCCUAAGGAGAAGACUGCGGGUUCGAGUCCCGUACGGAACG

# Variants of: B1
# test name: yeast fitness relative to wild type (ratio to wild type); higher = fitter; tRNA-Arg(CCU), competitive growth, 37 C, YPD
Variants at the floor of the assay were thinned out.

[
  {
    "mutation": "A14G U26A C27G",
    "yeast fitness": "≤ 0.5"
  },
  {
    "mutation": "A21G A36G A42U",
    "yeast fitness": 0.75
  },
  {
    "mutation": "G44C C60U A70G",
    "yeast fitness": "≤ 0.5"
  }
]

Notebook: A36G C49U , yeast fitness read as 1.02

Notebook: C11U A36C G68C , yeast fitness read as ≤ 0.5

Notebook: C33U C49G , yeast fitness read as 0.817

Notebook: C29U C31A A43G G67C , yeast fitness read as ≤ 0.5
